# Assay: Inhibition of Bacillus pasteurii urease using urea substrate assessed as reduction in ammonia production after 15 mins by indophenol's method
# Design: species or system Sporosarcina pasteurii
# maps each entry to its pIC50
Remember, pIC50 is on a log scale: it is -log10 of the molar concentration.

COc1cc(C=C2C(=O)NC(=S)NC2=O)c(OC)cc1Br | 4.36
O=C1NC(=S)NC(=O)C1=Cc1c(O)ccc2ccccc12 | 4.67
O=C1NC(=S)NC(=O)C1=Cc1c(Cl)c2cc(Br)ccc2oc1=O | 4.20
CSc1ccc(C=C2C(=O)NC(=S)NC2=O)cc1 | 4.74
COc1ccc(C=C2C(=O)NC(=S)NC2=O)cc1O | 4.64

Challenge: What pIC50 value was documented for this compound, COc1cccc(C=C2C(=O)NC(=S)NC2=O)c1O ?
Response given: 4.72

Challenge: What pIC50 value was documented for this compound, CCOc1ccc(C=C2C(=O)NC(=S)NC2=O)cc1 ?
Response given: 4.53

Challenge: What pIC50 value was documented for this compound, COc1cc(Br)c(C=C2C(=O)NC(=S)NC2=O)cc1OC ?
Response given: 4.33

Challenge: What pIC50 value was documented for this compound, O=C1NC(=S)NC(=O)C1C=C1c2ccccc2Cc2ccccc21 ?
Response given: 3.86

Challenge: What pIC50 value was documented for this compound, O=C1NC(=S)NC(=O)C1=Cc1ccc(O)c(O)c1 ?
Response given: 5.79

Challenge: What pIC50 value was documented for this compound, NC(N)=S [THIOUREA] ?
Response given: 4.68

Challenge: What pIC50 value was documented for this compound, COc1cc(C=C2C(=O)NC(=S)NC2=O)cc(I)c1O ?
Response given: 4.37

---

# Assay: Inhibition of Bacillus pasteurii urease using urea substrate assessed as reduction in ammonia production after 15 mins by indophenol's method
# Parameters: species or system Sporosarcina pasteurii
# 1 = IC50 below 20 µM (exclusive); 0 = IC50 at/above 20 µM

Completed entries (count: 3):
Cc1ccc(C=C2C(=O)NC(=S)NC2=O)o1 | 1
O=C1NC(=S)NC(=O)C1=Cc1ccc(O)c(O)c1O | 0
COc1cc(C=C2C(=O)NC(=S)NC2=O)cc(OC)c1O | 0

Challenge: Would you kindly verify if IC50 of O=C1NC(=S)NC(=O)C1=Cc1c[nH]c2ccccc12 is strictly less than 20 µM?
Response given: 0

Challenge: Would you kindly verify if IC50 of COc1ccc(O)c(C=C2C(=O)NC(=S)NC2=O)c1 is strictly less than 20 µM?
Response given: 0

Challenge: Would you kindly verify if IC50 of O=C1NC(=S)NC(=O)C1=Cc1cccs1 is strictly less than 20 µM?
Response given: 0

Challenge: Would you kindly verify if IC50 of O=C1NC(=S)NC(=O)C1=Cc1ccc(C=C2C(=O)NC(=S)NC2=O)cc1 is strictly less than 20 µM?
Response given: 1

Challenge: Would you kindly verify if IC50 of Cc1cccc(C=C2C(=O)NC(=S)NC2=O)n1 is strictly less than 20 µM?
Response given: 1

Challenge: Would you kindly verify if IC50 of O=C1NC(=S)NC(=O)C1=Cc1cc(Cl)cc(Cl)c1O is strictly less than 20 µM?
Response given: 0

Challenge: Would you kindly verify if IC50 of O=C1NC(=S)NC(=O)C1=Cc1ccncc1 is strictly less than 20 µM?
Response given: 1

Challenge: Would you kindly verify if IC50 of CN(C)c1ccc(C=C2C(=O)NC(=S)NC2=O)cc1 is strictly less than 20 µM?
Response given: 0

Challenge: Would you kindly verify if IC50 of O=C1NC(=S)NC(=O)C1=Cc1cc(Br)c(O)c(Br)c1 is strictly less than 20 µM?
Response given: 1

Challenge: Would you kindly verify if IC50 of O=C1NC(=S)NC(=O)C1=Cc1ccc(O)cc1O is strictly less than 20 µM?
Response given: 0

Challenge: Would you kindly verify if IC50 of COc1ccc(C=C2C(=O)NC(=S)NC2=O)cc1OC is strictly less than 20 µM?
Response given: 1

Challenge: Would you kindly verify if IC50 of Cc1ccccc1C=C1C(=O)NC(=S)NC1=O is strictly less than 20 µM?
Response given: 0

Challenge: Would you kindly verify if IC50 of Nc1ccccc1C=C1C(=O)NC(=S)NC1=O is strictly less than 20 µM?
Response given: 0
